Ref: ChEMBL document CHEMBL1926633

assay: Lipophilicity, log P of the compound; format: physicochemical; settings: octanol/water
Measured logP by item
Response field accepts a number only; no unit should be typed.

[[record]]
structure_as_smiles = "C=CCO[C@@H]1O[C@H](Cn2c(-c3ccc(Cl)cc3)n[nH]c2=S)[C@H]2OC3(CCCC3)O[C@@H]12"
readout_type = "logP"
reading = 1.91


Form field: reported logP of `C=CCO[C@@H]1O[C@H](CSc2ncn[nH]2)[C@@H](O)[C@H]1O`
-2.45

Another compound to check: `C=CCO[C@@H]1O[C@H](Cn2c(SCc3ccccc3)nnc2-c2ccc(Cl)cc2)[C@H]2OC3(CCCC3)O[C@@H]12`
1.63
